# assay_explanation: Particle size, PdI and zeta potential of mRNA-encapsulating LNPs by dynamic light scattering (Experimental Example 6)
# Format: physicochemical
# recorded_conditions: mRNA-encapsulating LNP, cationic lipid:DOPC:Chol=49:7.5:42.5:1, dispersion in TBS, dynamic light scattering (Tables 8-1, 8-2)
endpoint_label: particle size (nm)

Looking for the measured particle size (nm) of `CCCCCCC#CCCOC(=O)CCCC(=O)Oc1ccc(CC(=O)OCCC2CCN(CCSSCCN3CCC(CCOC(=O)Cc4ccc(OC(=O)CCCCCCC/C=C\CCCCCCCC)cc4)CC3)CC2)cc1` , can you help?
123.1

Same lookup for CCCCCCCC(=O)OC(CC=CCCCCCCCC(=O)Oc1ccc(CC(=O)OCCC2CCN(CCSSCCN3CCC(CCOC(=O)Cc4ccc(OC(=O)CCCCCCCC=CCC(CCCCCC)OC(=O)CCCCC)cc4)CC3)CC2)cc1)CCCCCC (centres unmarked) , please.
126

Same lookup for `CCCCCCCC/C=C\CCCCCCCC(=O)Oc1ccc(CC(=O)OCCC2CCN(CCSSCCN3CCC(CCOC(=O)Cc4ccc(OC(=O)CCCC(=O)OC(CC(=O)OCCCC)(CC(=O)OCCCC)CC(=O)OCCCC)cc4)CC3)CC2)cc1` , please.
90.0

What would you report for `CCCCCC/C=C\COC(=O)CCCC(=O)Oc1ccc(CC(=O)OCCC2CCN(CCSSCCN3CCC(CCOC(=O)Cc4ccc(OC(=O)CCCCCCC/C=C\CCCCCCCC)cc4)CC3)CC2)cc1` ?
128.2

Now this one: CCCCCCCC/C=C\CCCCCCCC(=O)Oc1ccc(CC(=O)OCCC2CCN(CCSSCCN3CCC(CCOC(=O)Cc4ccc(OC(=O)CCCCCCC/C=C\CCCCCCCC)cc4)CC3)CC2)cc1 [Comparative Example, reference compound]
123.80

Queued: `CCCCCCC#CCCOC(=O)CCCC(=O)Oc1ccc(CC(=O)OCCC2CCN(CCSSCCN3CCC(CCOC(=O)Cc4ccc(OC(=O)CCCCCCCC(=O)OC(CCCCCCCC)CCCCCCCC)cc4)CC3)CC2)cc1`
133.6

Further, for CCCCCCC#CCCOC(=O)CCCC(=O)Oc1ccc(CC(=O)OCCC2CCN(CCSSCCN3CCC(CCOC(=O)Cc4ccc(OC(=O)CCCC(=O)Oc5c(C)c(C)c6c(c5C)CCC(C)(CCCC(C)CCCC(C)CCCC(C)C)O6)cc4)CC3)CC2)cc1 (centres unmarked) ?
130.2

What do you have for CCCCCCCC/C=C\CCCCCCCC(=O)Oc1ccc(CC(=O)OCCC2CCN(CCSSCCN3CCC(CCOC(=O)Cc4ccc(OC(=O)CCCCCCCC(OC(=O)CC)C(CCCCCCCC)OC(=O)CC)cc4)CC3)CC2)cc1 (centres unmarked) ?
119.7

Would you kindly repeat that for CCCCCCCC/C=C\CCCCCCCC(=O)Oc1ccc(CC(=O)OCCC2CCN(CCSSCCN3CCC(CCOC(=O)Cc4ccc(OC(=O)CCCCCCCCCCC(CCCCCC)OC(=O)CCCCCCC)cc4)CC3)CC2)cc1 (centres unmarked) ?
122.1

Then CCCCCCC(C/C=C\CCCCCCCC(=O)Oc1ccc(CC(=O)OCCC2CCN(CCSSCCN3CCC(CCOC(=O)Cc4ccc(OC(=O)CCCCCCC/C=C\CC(CCCCCC)OC(=O)c5ccc(OCC)c(OCC)c5)cc4)CC3)CC2)cc1)OC(=O)c1ccc(OCC)c(OCC)c1 (centres unmarked) ?
126.1

# iterate: CCCCCCCC/C=C\CCCCCCCC(=O)Oc1ccc(CC(=O)OCCC2CCN(CCSSCCN3CCC(CCOC(=O)Cc4ccc(OC(=O)CCCCCCC/C=C\CC(CCCCCC)OC(=O)C(CC)CCCC)cc4)CC3)CC2)cc1 (centres unmarked)
130.5
